tgt: 5-HT6 (UniProt P50406)
pKi: −log10 of the molar value.
endpoint_name: pKi

                       item_smiles  endpoint_name  value
0  CN(C)CCc1c[nH]c2cc(Br)c(Br)cc12            pKi   7.32

* * *

tgt: 5HT2A receptor (Homo sapiens)
Sequence (P28223 whole entry): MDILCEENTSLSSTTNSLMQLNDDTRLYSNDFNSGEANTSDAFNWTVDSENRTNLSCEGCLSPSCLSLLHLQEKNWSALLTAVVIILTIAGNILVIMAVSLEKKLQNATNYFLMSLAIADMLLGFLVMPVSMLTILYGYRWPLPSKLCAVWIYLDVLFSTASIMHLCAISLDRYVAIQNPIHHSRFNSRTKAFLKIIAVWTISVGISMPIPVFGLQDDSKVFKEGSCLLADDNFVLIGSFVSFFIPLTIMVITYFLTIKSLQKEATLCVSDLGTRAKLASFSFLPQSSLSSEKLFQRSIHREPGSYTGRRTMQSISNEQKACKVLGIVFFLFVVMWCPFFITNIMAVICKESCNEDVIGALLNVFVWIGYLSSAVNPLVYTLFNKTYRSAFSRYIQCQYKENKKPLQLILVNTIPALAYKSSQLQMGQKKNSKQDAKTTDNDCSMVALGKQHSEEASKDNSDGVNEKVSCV
assay_summary: In vitro receptor binding assay, 5-HT2A
Set-up: species or system human or rodent
condition_set: read-out: Ki 5-HT2A; preliminary data
pKi: −log10 of the molar value.
endpoint_name: pKi

                       item_smiles  value
0  CN(C)CCc1c[nH]c2cc(Br)c(Br)cc12   6.61

* * *

tgt: 5-HT2C (UniProt P28335)
pKi: −log10 of the molar value.
endpoint_name: pKi

In [3]: df
Out[3]:
                       item_smiles  value
0  CN(C)CCc1c[nH]c2cc(Br)c(Br)cc12   6.73
